Test system: nucleoside oxidase YT-1
Format: biochemical, Pseudomonas maltophilia LB-86
Conditions: inhibitor 1 mM; enzyme 0.02 U on inosine, pH 6.0, 25° C., 10 minutes
Parameter: Relative activity

Please report the recorded Relative activity for CCN(CC)C(=S)S [Sodium N,N'-Diethylditiocarbamate, Sodium N,N'-Diethylditio-carbamate] .
271%

Could you do the same for [Cl][Hg][Cl] , please?
69.2%

Could you do the same for c1cnc2c(c1)ccc1cccnc12 , please?
94.7%

Could you do the same for c1ccc(-c2ccccn2)nc1 , please?
96.7%

Could you do the same for CCN(CC)CCCC(C)Nc1c2ccc(Cl)cc2nc2ccc(OC)cc12 (stereo not drawn) , please?
95.6%

Could you do the same for [N-]=[N+]=[N-] [Sodium azide] , please?
81.5%

Could you do the same for N#CO [Potassium cyanate] , please?
34.8%

Could you do the same for O=S(=O)(F)Cc1ccccc1 [Phenylmethylsulfonyl fluoride] , please?
95.3%

Could you do the same for NN.O=S(=O)(O)O [Hydrazine sulfate] , please?
101%

Could you do the same for NO [Hydroxylamine] , please?
87.8%

Could you do the same for CC(=O)[O-].CC(=O)[O-].[Pb+2] , please?
81.3%

Could you do the same for O=C1CCC(=O)N1Br [N-Bromosuccinimide] , please?
0%

====

Tested on: nucleoside oxidase YT-1
Test: Substrate specificity test (nucleoside oxidase activity, oxygen consumption)
Assay type: biochemical, Pseudomonas maltophilia LB-86
Conditions: substrate 10 mM; relative to activity on inosine taken as 100
Parameter: Relative activity (%)
Kindly provide the numeric value in % only, without the unit symbol.

Please report the recorded Relative activity for Nc1ncnc2c1ncn2[C@H]1C[C@H](O)[C@@H](CO)O1 [Deoxyadenosine] .
81.4

Could you do the same for Nc1nc2c(ncn2[C@@H]2O[C@H](COP(=O)(O)O)[C@@H](O)[C@H]2O)c(=O)[nH]1 [5'-GMP] , please?
0

Could you do the same for Nc1ncnc2nc[nH]c12 [Adenine] , please?
0

Could you do the same for Cc1cn([C@H]2C[C@H](O)[C@@H](CO)O2)c(=O)[nH]c1=O [Thymidine] , please?
55.8

Could you do the same for Cc1cn([C@H]2C[C@H](O)[C@@H](CO)O2)c(=O)[nH]c1=O [Deoxythymidine] , please?
77.3

====

Test system: nucleoside oxidase YT-1
Experiment: Influence of metal ions on the activity
Type: biochemical, Pseudomonas maltophilia LB-86
Conditions: metal salt 0.1 mM; enzyme 0.02 U on inosine, pH 6.0, 25° C., 10 minutes
Protocol: A solution of the enzyme (0.02 U) was caused to act on inosine at pH 6.0 and 25° C. for 10 minutes in the presence of various metal ions, and the activity of the enzyme was thereafter measured to check the influence of the metal ions on the activity.
Parameter: Relative activity (%)
Kindly provide the numeric value in % only, without the unit symbol.

Please report the recorded Relative activity for O=S(=O)([O-])[O-].[Zn+2] .
106

Could you do the same for [Cl-].[Cl-].[Co+2] , please?
103

Could you do the same for O=S(=O)([O-])[O-].[Mg+2] , please?
102

Could you do the same for O=S(=O)([O-])[O-].[Mn+2] , please?
103

Could you do the same for O=S(=O)([O-])[O-].[Fe+2] , please?
93.4

====

Test system: nucleoside oxidase YT-1
Test: Substrate specificity test (nucleoside oxidase activity, oxygen consumption)
Format: biochemical, Pseudomonas maltophilia LB-86
Settings: substrate 10 mM; relative to activity on inosine taken as 100
Parameter: Relative activity
Note to self: number, then unit, no commentary.

Please report the recorded Relative activity for Nc1nc2c(ncn2[C@@H]2O[C@H](CO)[C@@H](O)[C@H]2O)c(=O)[nH]1 .
121%

Could you do the same for O=c1[nH]c(=O)c2ncn([C@@H]3O[C@H](CO)[C@@H](O)[C@H]3O)c2[nH]1 , please?
125%

Could you do the same for Nc1ncnc2c1ncn2[C@@H]1O[C@H](CO)[C@@H](O)[C@H]1O , please?
97.3%

Could you do the same for Nc1nc2c(ncn2[C@H]2C[C@H](O)[C@@H](CO)O2)c(=O)[nH]1 , please?
92.3%

Could you do the same for Nc1ccn([C@@H]2O[C@H](CO)[C@@H](O)[C@H]2O)c(=O)n1 , please?
77.5%

Could you do the same for Nc1ncnc2c1ncn2[C@@H]1O[C@H](COP(=O)(O)OP(=O)(O)O)[C@@H](O)[C@H]1O , please?
0%

Could you do the same for O=c1ccn([C@@H]2O[C@H](CO)[C@@H](O)[C@H]2O)c(=O)[nH]1 , please?
92.8%

Could you do the same for OC[C@H]1O[C@@H](n2cnc3c(O)ncnc32)[C@H](O)[C@@H]1O , please?
100%

====

Assign Relative activity to each entry below.
System: nucleoside oxidase YT-1
Test: Substrate specificity test (nucleoside oxidase activity, oxygen consumption)
Format: biochemical, Pseudomonas maltophilia LB-86
Settings: substrate 10 mM; relative to activity on inosine taken as 100
Kindly provide the numeric value in % only, without the unit symbol.

Please report the recorded Relative activity for OC[C@H]1O[C@@H](n2cnc3c(O)ncnc32)C[C@@H]1O [Deoxyinosine] .
80.7

Could you do the same for Nc1ncnc2c1ncn2[C@@H]1O[C@H](COP(=O)(O)O)[C@@H](O)[C@H]1O [5'-AMP, 5'-adenosine monophosphate] , please?
0

Could you do the same for Nc1ncnc2c1ncn2[C@@H]1O[C@H](COP(=O)(O)OP(=O)(O)OP(=O)(O)O)[C@@H](O)[C@H]1O [5'-ATP] , please?
0
